These data points were gathered from patent US20240239781A1.

molecular target: human σ2/TMEM97 receptor (Homo sapiens, UniProt Q5BJF2); assay: Binding assay to human σ2/TMEM97 receptor ([3H]-DTG, transfected HEK-293 membranes); settings: class scale, read-out: Binding σ-2 Ki
Sequence (Q5BJF2 whole entry): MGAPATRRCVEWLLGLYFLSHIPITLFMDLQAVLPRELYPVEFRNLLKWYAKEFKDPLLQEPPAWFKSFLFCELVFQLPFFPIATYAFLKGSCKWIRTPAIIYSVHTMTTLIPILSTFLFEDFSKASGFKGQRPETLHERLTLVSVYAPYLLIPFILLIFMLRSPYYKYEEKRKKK

{"compound": "Cc1cc(-c2nn(C)c(Cl)c2CN2CCC(C3(NCCC(C)C)CC3)C2)no1 (stereo not shown) [Example 62]", "Ki": "100 to 500 nM"}
{"compound": "CCc1nc(C)c(-c2nn(C)c(Cl)c2C(=O)N2CCC3(CCN(CCC(C)(C)C)CC3)CC2)o1 [Example 176]", "Ki": "< 100 nM"}
{"compound": "Cc1cc(-c2nn(C)c(Cl)c2C(=O)N2CCCC(CNCC(C)C)C2)no1 (stereo not shown) [Example 95]", "Ki": "> 1000 nM"}
{"compound": "Cc1cc(-c2nn(C)c(Cl)c2CN2CCCCC(NCC3CCOCC3)C2)no1 (stereo not shown) [Example 4]", "Ki": "500 to 1000 nM"}
